Recorded values, source patent US20210087281A1.

# TEST TARGET: native human MET on living cells (human, UniProt P08581 25-1390)
# Sequence (P08581 25-1390): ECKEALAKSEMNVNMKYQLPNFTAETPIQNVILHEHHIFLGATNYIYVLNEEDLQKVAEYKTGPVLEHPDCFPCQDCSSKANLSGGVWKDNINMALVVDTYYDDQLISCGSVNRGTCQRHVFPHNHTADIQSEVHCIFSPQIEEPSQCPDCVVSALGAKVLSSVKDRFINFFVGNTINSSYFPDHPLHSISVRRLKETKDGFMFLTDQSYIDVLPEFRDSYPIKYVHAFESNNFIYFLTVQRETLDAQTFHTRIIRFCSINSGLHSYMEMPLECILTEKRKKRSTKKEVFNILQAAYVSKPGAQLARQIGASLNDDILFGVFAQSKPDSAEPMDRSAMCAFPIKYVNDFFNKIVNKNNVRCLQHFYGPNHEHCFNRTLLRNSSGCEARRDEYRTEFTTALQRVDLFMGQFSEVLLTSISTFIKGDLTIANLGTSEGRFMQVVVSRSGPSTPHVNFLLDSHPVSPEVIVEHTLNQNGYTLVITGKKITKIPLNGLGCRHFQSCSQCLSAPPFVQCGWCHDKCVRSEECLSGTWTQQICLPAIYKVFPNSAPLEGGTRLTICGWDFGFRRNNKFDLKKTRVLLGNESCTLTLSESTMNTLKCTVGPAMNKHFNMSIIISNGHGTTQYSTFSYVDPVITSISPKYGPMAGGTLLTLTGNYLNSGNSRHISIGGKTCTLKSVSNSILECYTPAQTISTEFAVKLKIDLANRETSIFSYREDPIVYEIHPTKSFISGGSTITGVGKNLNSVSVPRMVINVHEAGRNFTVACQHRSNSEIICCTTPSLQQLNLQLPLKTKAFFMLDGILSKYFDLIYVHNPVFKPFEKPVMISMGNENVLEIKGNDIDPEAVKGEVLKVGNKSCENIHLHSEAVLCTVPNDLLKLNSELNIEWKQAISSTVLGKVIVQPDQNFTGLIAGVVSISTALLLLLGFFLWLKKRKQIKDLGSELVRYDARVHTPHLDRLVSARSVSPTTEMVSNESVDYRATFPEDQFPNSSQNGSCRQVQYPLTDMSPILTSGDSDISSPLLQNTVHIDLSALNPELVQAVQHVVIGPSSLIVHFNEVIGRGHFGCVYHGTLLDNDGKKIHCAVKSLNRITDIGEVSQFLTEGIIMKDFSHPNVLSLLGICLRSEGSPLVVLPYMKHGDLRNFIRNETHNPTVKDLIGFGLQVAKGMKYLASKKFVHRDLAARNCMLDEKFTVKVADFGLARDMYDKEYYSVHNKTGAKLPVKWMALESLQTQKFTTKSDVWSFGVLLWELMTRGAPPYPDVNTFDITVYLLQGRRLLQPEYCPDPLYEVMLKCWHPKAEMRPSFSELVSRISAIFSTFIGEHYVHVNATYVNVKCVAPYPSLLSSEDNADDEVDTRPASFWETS
# METHOD: cell-based or functional assay
METRIC NAME: branches per spheroid, LOC cells, 0.5 nM (branches)
Please respond with the number in branches and leave the unit unwritten.

Worked examples, 2 binders total:
76H10 chimeric llama-human IgG1 mAb (antibody, V domains shown, llama VH on human IgG1 CH1-CH2-CH3, llama VL on human lambda CL) VH: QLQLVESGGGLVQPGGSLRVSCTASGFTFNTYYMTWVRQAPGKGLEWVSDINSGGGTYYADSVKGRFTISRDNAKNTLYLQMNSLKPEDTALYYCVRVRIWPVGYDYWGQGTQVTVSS VL: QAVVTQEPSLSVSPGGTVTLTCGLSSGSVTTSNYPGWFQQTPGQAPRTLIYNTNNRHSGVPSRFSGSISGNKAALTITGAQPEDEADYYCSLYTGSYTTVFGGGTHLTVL	7.3
71G2 chimeric llama-human IgG1 mAb (antibody, V domains shown, llama VH on human IgG1 CH1-CH2-CH3, llama VL on human lambda CL) VH: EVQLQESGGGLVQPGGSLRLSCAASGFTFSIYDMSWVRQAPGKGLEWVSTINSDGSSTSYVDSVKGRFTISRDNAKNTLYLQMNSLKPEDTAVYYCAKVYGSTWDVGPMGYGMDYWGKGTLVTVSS VL: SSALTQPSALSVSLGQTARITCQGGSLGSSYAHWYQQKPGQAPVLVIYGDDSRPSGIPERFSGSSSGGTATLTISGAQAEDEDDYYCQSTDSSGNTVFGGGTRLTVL	25.3

According to the records, this binder 71G12 chimeric llama-human IgG1 mAb (antibody, V domains shown, llama VH on human IgG1 CH1-CH2-CH3, llama VL on human kappa CL) VH: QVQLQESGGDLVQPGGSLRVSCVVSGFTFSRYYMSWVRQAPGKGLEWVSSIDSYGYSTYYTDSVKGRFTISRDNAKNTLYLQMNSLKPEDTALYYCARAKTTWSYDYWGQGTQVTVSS VL: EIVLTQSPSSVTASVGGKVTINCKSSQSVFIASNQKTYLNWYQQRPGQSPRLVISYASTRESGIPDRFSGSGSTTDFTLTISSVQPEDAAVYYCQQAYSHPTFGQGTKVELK displays branches per spheroid, LOC cells, 0.5 nM of 7
